testSummary: Aqueous solubility by laser nephelometry
Type: physicochemical
settings: pH 2, simulated gastric fluid, kinetic from dmso stock; pH2 buffer, 1% DMSO, 30 minute incubation at 25° C., range 1.6-100; read-out: Solubility at pH2
solubility at 30 min: recorded values

Cc1nocc1C(=O)N1CCN2C(=O)c3nccnc3C[C@]12c1ccc(Cl)cc1 (single isomer, unassigned)
50 to 100 µg/mL
Cc1nocc1C(=O)N1CCN2C(=O)c3nccnc3CC12c1ccc(F)cc1 (centres unmarked)
> 100 µg/mL
Cc1nocc1C(=O)N1CCN2C(=O)c3ncccc3CC12C1CCC(F)(F)CC1 (centres unmarked)
50 to 100 µg/mL
Cc1nocc1C(=O)N1CCN2C(=O)c3nccnc3CC12c1ccc(Cl)cc1 (centres unmarked)
50 to 100 µg/mL
Cc1nocc1C(=O)N1CCN2C(=O)c3ncccc3C[C@]12c1ccc(F)cc1 (single isomer, unassigned)
> 100 µg/mL

Req: # input compound: O=C(c1ccon1)N1CCN2C(=O)c3cccc(F)c3CC12c1ccc(Cl)cc1 (centres unmarked) [Compound 1-086, reference compound] ; wanted: its solubility at 30 min
Resp: < 1.6 µg/mL

Req: Next compound up: Cc1nocc1C(=O)N1CCN2C(=O)c3ncccc3CC12c1ccc(Cl)cc1 (centres unmarked)
Resp: 50 to 100 µg/mL

Req: Next compound up: Cc1nocc1C(=O)N1CCN2C(=O)c3ncccc3C[C@]12c1ccc(Cl)cc1 (single isomer, unassigned)
Resp: 50 to 100 µg/mL

* * *

testSummary: Aqueous solubility by laser nephelometry
Format: physicochemical
settings: pH 6.5, aqueous buffer, kinetic from dmso stock; pH6.5 buffer, 1% DMSO, 30 minute incubation at 25° C., range 1.6-100; read-out: Solubility at pH6.5
solubility at 30 min: recorded values

Cc1nocc1C(=O)N1CCN2C(=O)c3nccnc3C[C@]12c1ccc(F)cc1 (single isomer, unassigned) [Compound 5A]
> 100 µg/mL
Cc1nocc1C(=O)N1CCN2C(=O)c3nccnc3C[C@]12c1ccc(Cl)cc1 (single isomer, unassigned) [Compound 1A]
> 100 µg/mL
Cc1nocc1C(=O)N1CCN2C(=O)c3nccnc3CC12c1ccc(F)cc1 (centres unmarked) [Compound 5]
> 100 µg/mL
O=C(c1ccon1)N1CCN2C(=O)c3cccc(F)c3CC12c1ccc(Cl)cc1 (centres unmarked) [Compound 1-086, reference compound]
< 1.6 µg/mL
Cc1cc(C23Cc4cccnc4C(=O)N2CCN3C(=O)c2conc2C)ccc1F (centres unmarked) [Compound 6]
50 to 100 µg/mL
Cc1nocc1C(=O)N1CCN2C(=O)c3ncccc3CC12c1ccc(Cl)cc1 (centres unmarked) [Compound 2]
> 100 µg/mL

Req: # input molecule: Cc1nocc1C(=O)N1CCN2C(=O)c3ncccc3CC12c1ccc(F)cc1 (centres unmarked) [Compound 4] ; wanted: its solubility at 30 min
Resp: > 100 µg/mL

Req: Next molecule up: Cc1nocc1C(=O)N1CCN2C(=O)c3ncccc3CC12C1CCCCC1 (centres unmarked) [Compound 11]
Resp: > 100 µg/mL

* * *

solubility at 30 min: recorded values
testSummary: Aqueous solubility by laser nephelometry
Type: physicochemical
settings: pH 2, simulated gastric fluid, kinetic from dmso stock; pH2 buffer, 1% DMSO, 30 minute incubation at 25° C., range 1.6-100; read-out: Solubility at pH2

Req: # input molecule: O=C(c1ccno1)N1CCN2C(=O)c3ccccc3CC12c1ccc(Cl)cc1 (stereo not shown) [Compound 1-025, reference compound] ; wanted: its solubility at 30 min
Resp: 3.1 to 6.3 µg/mL

Attribution: patent US8796303B2
